Attribution: PubChem BioAssay AID493111

system: APEH; experiment: LYPLA1/LYPLA2 inhibition and hydrolase selectivity, late-stage follow-up, selectivity assay for LYPLA1/LYPLA2 dual inhibitor project, biochemical, gel-based ABPP, fluorescence, proteome (AID 493111); conditions: fluorophosphonate-rhodamine competition, at 1.5 µM (top of the series)
QUANTITY: inhibition (%)
One number for each entry, in %.

Some compounds with recorded inhibition:
COMPOUND | READOUT UNIT | MEASURED RESULT
O=C(N1CCOCC1)n1ccnn1 | % | 0
O=C(N1CCCC(Cc2ccccc2)C1)n1cc(C(O)(c2ccccc2)c2ccccc2)nn1 (stereo not given) | % | 0
COC1CCN(C(=O)n2ncc(C(O)(c3ccccc3)c3ccccc3)n2)CC1 | % | 0
O=C(N1CCOCC1)n1ncc(-c2ccccc2)n1 | % | 100
CC(C)(O)c1cnn(C(=O)N2CCC(C(C)(C)C)CC2)n1 | % | 0

Below are 3 compounds. Give each one its inhibition.
1. O=C(N1CCOCC1)n1ncc(-c2ccc(OC(F)(F)F)cc2)n1
2. O=C(N1CCOCC1)n1nnc2ccccc21
3. O=C(N1CCCCC1)n1ccnn1

Ans:
[50, 100, 0]

###

test system: LYPLA2; assay: LYPLA1/LYPLA2 inhibition and hydrolase selectivity, late-stage follow-up, selectivity assay for LYPLA1/LYPLA2 dual inhibitor project, biochemical, gel-based ABPP, fluorescence, proteome (AID 493111); conditions: fluorophosphonate-rhodamine competition, at 1.5 µM (top of the series)
Activity calls are given as the source filed them. No rule for the calls is given here.
Please answer using one outcome listed in t for active, f for inactive

SMILES CODE | GROUP
COc1ccc2cc(-c3cnn(C(=O)N4CCCCC4)n3)ccc2c1 | f
O=C(N1CCC(C(O)(c2ccccc2)c2ccccc2)CC1)n1ncc(C(O)(c2ccccc2)c2ccccc2)n1 | t
COC1CCN(C(=O)n2ncc(C(O)(c3ccccc3)c3ccccc3)n2)CC1 | t
O=C(N1CCOCC1)n1ncc(-c2cc(F)cc(F)c2)n1 | f
CC(C)(O)c1cnn(C(=O)N2CCC(C(C)(C)C)CC2)n1 | t

Consider the record given below.
Q: Lab log entry: O=C(N1CCOCC1)n1nnc2ccccc21 — outcome as called in the assay?
Ans: f

###

So I've got a bunch of compounds here, and I need their inhibition values.
tested on: LYPLA1; test: LYPLA1/LYPLA2 inhibition and hydrolase selectivity, late-stage follow-up, selectivity assay for LYPLA1/LYPLA2 dual inhibitor project, biochemical, gel-based ABPP, fluorescence, proteome (AID 493111); settings: fluorophosphonate-rhodamine competition, at 1.5 µM (top of the series)
The source made the active and inactive calls. No rule for the calls is given here.

COMPOUND | MEASURED RESULT
O=C(N1CCCCC1)n1ncc(C(O)(c2ccccc2)c2ccccc2)n1 | 100%
CC1CCN(C(=O)n2ncc(C(O)(c3ccccc3)c3ccccc3)n2)CC1 | 100%
O=C(N1CCCCC1)n1ccnn1 | 75% (inactive)
O=C(N1CCOCC1)n1ncc(-c2ccccc2)n1 | 0% (inactive)
O=C(N1CCCC(Cc2ccccc2)C1)n1cc(C(O)(c2ccccc2)c2ccccc2)nn1 (centres undefined) | 100%

Please go through the list and note inhibition for each compound.
1. O=C(N1CCOCC1)n1ncc(C(O)(c2ccccc2)c2ccccc2)n1
2. COC1CCN(C(=O)n2ncc(C(O)(c3ccccc3)c3ccccc3)n2)CC1
3. CC(C)(C)C1CCN(C(=O)n2ncc(C3(O)CCCCC3)n2)CC1
4. O=C(N1CCCCC1)n1ncc(C(O)c2ccccc2)n1 (centres undefined)
5. O=C(N1CCC(C(O)(c2ccccc2)c2ccccc2)CC1)n1ncc(C(O)(c2ccccc2)c2ccccc2)n1
6. O=C(N1CCOCC1)n1ncc(-c2cc(F)cc(F)c2)n1
7. O=C(N1CCCCC1)n1ncc(-c2ccc(Oc3ccccc3)cc2)n1

Ans:
1. 100%
2. 100%
3. 100%
4. 100%
5. 100%
6. 50% (inactive)
7. 100%

I have 2 compounds here; please give me inhibition for each one.
1. O=C(N1CCOCC1)n1ccnn1
2. CC(C)(C)C1CCN(C(=O)n2ncc(C(O)(c3ccccc3)c3ccccc3)n2)CC1

Ans:
["0% (inactive)", "100%"]

###

Would you mind telling me the reported inhibition of each entry?
test system: LYPLA1; experiment: LYPLA1/LYPLA2 inhibition and hydrolase selectivity, late-stage follow-up, selectivity assay for LYPLA1/LYPLA2 dual inhibitor project, biochemical, gel-based ABPP, fluorescence, proteome (AID 493111); settings: fluorophosphonate-rhodamine competition, at 1.5 µM (top of the series)
Activity calls are given as the source filed them. How the calls were made is not given here.

COMPOUND | QUANTITY | MEASURED RESULT
CCC1CCCCN1C(=O)n1ncc(C(O)(c2ccccc2)c2ccccc2)n1 (stereo unspecified) | inhibition | 0% (inactive)

Please state, for each entry, its recorded inhibition.
1. O=C(N1CCOCC1)n1ncc(-c2ccc(OC(F)(F)F)cc2)n1
2. COc1ccc2cc(-c3cnn(C(=O)N4CCCCC4)n3)ccc2c1
3. O=C(N1CCOCC1)n1nnc2ccccc21

Ans:
1: 0% (inactive); 2: 100% (inactive); 3: 50% (inactive)

Provide the reported inhibition of each entry below, same order.
1. O=C(N1CCC(Cc2ccccc2)CC1)n1ncc(C(O)(c2ccccc2)c2ccccc2)n1
2. CC(C)(O)c1cnn(C(=O)N2CCC(C(C)(C)C)CC2)n1

Ans:
100%
100%

###

tested on: ESD; test: LYPLA1/LYPLA2 inhibition and hydrolase selectivity, late-stage follow-up, selectivity assay for LYPLA1/LYPLA2 dual inhibitor project, biochemical, gel-based ABPP, fluorescence, proteome (AID 493111); details: fluorophosphonate-rhodamine competition, at 1.5 µM (top of the series)
Active and inactive are the calls of the source. How the calls were made is not given here.
Return exactly one item of 1 (active), 0 (inactive)

COMPOUND | GROUP
CC(C)(C)C1CCN(C(=O)n2ncc(C(O)(c3ccccc3)c3ccccc3)n2)CC1 | 0
CC1CCN(C(=O)n2ncc(C(O)(c3ccccc3)c3ccccc3)n2)CC1 | 0
CC(C)(O)c1cnn(C(=O)N2CCC(C(C)(C)C)CC2)n1 | 0

Q: Name the outcome recorded for COC1CCN(C(=O)n2ncc(C(O)(c3ccccc3)c3ccccc3)n2)CC1 in the assay.
Ans: 0

Q: Field: outcome | Entry: O=C(N1CCC(C(O)(c2ccccc2)c2ccccc2)CC1)n1ncc(C(O)(c2ccccc2)c2ccccc2)n1
Ans: 0

Q: Recorded call for O=C(N1CCOCC1)n1ncc(C(O)(c2ccccc2)c2ccccc2)n1 ?
Ans: 0

Q: For this compound, state the assay outcome: O=C(N1CCOCC1)n1ncc(-c2ccccc2)n1
Ans: 1

Q: Which outcome was entered for the compound O=C(N1CCOCC1)n1ncc(-c2cc(F)cc(F)c2)n1 in this test?
Ans: 1

Q: Tell me the recorded outcome of this test for O=C(N1CCOCC1)n1ccnn1 .
Ans: 0

Q: // param item: O=C(N1CCCCC1)n1ncc(C(O)c2ccccc2)n1 (stereo not given) ; yields the recorded call
Ans: 1

Q: Given O=C(N1CCCCC1)n1ccnn1 , state the outcome it received in this test.
Ans: 0

Q: // return assay outcome for O=C(N1CCCC(Cc2ccccc2)C1)n1cc(C(O)(c2ccccc2)c2ccccc2)nn1 (stereo not given)
Ans: 0

Q: I would be grateful if you could indicate the recorded call for COc1ccc2cc(-c3cnn(C(=O)N4CCCCC4)n3)ccc2c1 .
Ans: 1

###

test system: LYPLA2; test: LYPLA1/LYPLA2 inhibition and hydrolase selectivity, late-stage follow-up, selectivity assay for LYPLA1/LYPLA2 dual inhibitor project, biochemical, gel-based ABPP, fluorescence, proteome (AID 493111); conditions: fluorophosphonate-rhodamine competition, at 1.5 µM (top of the series)
QUANTITY: inhibition (%)
Answers are plain numbers, in %.

Below is a list of molecules. For each, state its recorded inhibition.
1. O=C(N1CCCCC1)n1ncc(-c2ccc(Oc3ccccc3)cc2)n1
2. O=C(N1CCCCC1)n1ccnn1
3. CC(C)(C)C1CCN(C(=O)n2ncc(C(O)(c3ccccc3)c3ccccc3)n2)CC1
4. O=C(N1CCCC(Cc2ccccc2)C1)n1cc(C(O)(c2ccccc2)c2ccccc2)nn1 (stereo not drawn)
5. CC1CCN(C(=O)n2ncc(C(O)(c3ccccc3)c3ccccc3)n2)CC1

Ans:
[0, 0, 100, 100, 100]

Hello, I would appreciate it if you could give inhibition for each entry below.
1. O=C(N1CCOCC1)n1ccnn1
2. O=C(N1CCC(Cc2ccccc2)CC1)n1ncc(C(O)(c2ccccc2)c2ccccc2)n1
3. O=C(N1CCCCC1)n1ncc(C(O)(c2ccccc2)c2ccccc2)n1

Ans:
0
100
100

###

Could you please report measured inhibition for the items listed next?
system: LYPLA2; test: LYPLA1/LYPLA2 inhibition and hydrolase selectivity, late-stage follow-up, selectivity assay for LYPLA1/LYPLA2 dual inhibitor project, biochemical, gel-based ABPP, fluorescence, proteome (AID 493111); settings: fluorophosphonate-rhodamine competition, at 1.5 µM (top of the series)
Give bare numbers, in %.

Sample records with inhibition:
MOLECULE | TARGET OR SYSTEM | MEASURED RESULT
O=C(N1CCCCC1)n1ncc(C(O)c2ccccc2)n1 (stereo unspecified) | LYPLA2 | 75
O=C(N1CCOCC1)n1ncc(-c2ccccc2)n1 | LYPLA2 | 0
CC(C)(C)C1CCN(C(=O)n2ncc(C3(O)CCCCC3)n2)CC1 | LYPLA2 | 100
O=C(N1CCOCC1)n1ncc(-c2ccc(OC(F)(F)F)cc2)n1 | LYPLA2 | 0
O=C(N1CCOCC1)n1ncc(C(O)(c2ccccc2)c2ccccc2)n1 | LYPLA2 | 50

// next entry
Q: Which inhibition is reported for this molecule? CCC1CCCCN1C(=O)n1ncc(C(O)(c2ccccc2)c2ccccc2)n1 (stereo unspecified)
Ans: 0
